# Tested on: MS2 coat protein
# Measurement Protocol: apparent KD of MS2 coat protein; designed switch direction (-1 OFF switch, 1 ON switch): -1; higher = weaker reporter binding
# Experimental Conditions: input ligand: FMN 200 uM
Use Satisfied when the recorded apparent KD of MS2 coat protein is no lower than 60 nM; use Not satisfied when it is lower.

The following sequences have reported results that may help.
# Chain Sequence, Category Label
measured = [
    ("UCUGGUCGAGGAUAUACAUGAGGAUCACCCAUGUUGAUCAACUGCCGAUAGGCAGAAUGUAGAAGGCGACCAGA [E3/7-A3] (Eterna round: R97, puzzle: Exclusion 3)", "Satisfied"),
    ("GUCUCACAUGAGGAUCACCCAUGUGAGGAUAUACUGGGCAUUCUGGUGGCAGGUGGGCGUAGAAGGCACGUGGG [Eternabot (L1) Solution 82] (Eterna round: R97, puzzle: Exclusion 1)", "Not satisfied"),
    ("UCCCAACAUGAGGAUCACCCAUGUAAGGAUAUCCAUGGACGACGGCAUUGUUCCCGGCGGAGAAGGUGCAUGGU [EX1 B.21] (Eterna round: R97, puzzle: Exclusion 1)", "Not satisfied"),
    ("AUAAUGUCAGGAUAUCAGUCGUACAGCUUCGGCUGUACGACUGAGAAGGGACAUGAGGAUCACCCAUGUGGUUA [E4/7-A1] (Eterna round: R97, puzzle: Exclusion 4)", "Not satisfied"),
    ("UUGAUGUGAGGAUAUAUAUGGUGGUUUUUUUAUUUUUUAUUACUUGAGGAUCACCCAAGUAGAAGGCGCUACGU [JR_Ex2_Sub069] (Eterna round: R97, puzzle: Exclusion 2)", "Not satisfied"),
]

Would you say CCCGCACGAGUUAGGAUAUCAUUUGUCGAGAUAGGUGAGAAGGAACUUGAGGAUCACCCAAGUGUCCCGGGAAA [Maquso] (Eterna round: R97, puzzle: Brourd's mod of Exclusion 4) shows apparent KD of MS2 coat protein at minimum 60 nM? Not satisfied

Would you say UGUUGUUACGCAGGAUAUUGUCAACAGGCAAUAGGAUAUCCGAAAGGAGAAGGAUCGCCAACAGGCGAGAAGGGCGGGUUAACA [pwkr exNG2 2xF7 2xFMN.1] (Eterna round: R96, puzzle: Exclusion NG 2) shows apparent KD of MS2 coat protein at minimum 60 nM? Satisfied

Would you say AAACGGCAGGGAGGAUAUGCUUGCCUGGGUCGUCUUCAAACAUGAGGAUCACCCAUGUAGUCGACGCAGAAGGCCCUCAAAGCC [JL ViennaUCT Ontiis mod 4] (Eterna round: R96, puzzle: Exclusion NG 2) shows apparent KD of MS2 coat protein at minimum 60 nM? Not satisfied

Would you say CUUAGGGCGGAGGAUAUGCCGUGGGCGAAUACAGUAGAAGGCCGCACUUGAGGAUCACCCAAGUAUGGUCAAAC [Inusisbeor] (Eterna round: R97, puzzle: Exclusion 6) shows apparent KD of MS2 coat protein at minimum 60 nM? Not satisfied

Would you say ACACUGCGAGGAUAUACAUGAGGAUCACCCAUGUUAAGGAAGUCAAGGUUAAUUUAAGGUAGAAGGCGCGUAUU [JR_Ex3_Sub012] (Eterna round: R97, puzzle: Exclusion 3) shows apparent KD of MS2 coat protein at minimum 60 nM? Not satisfied
